assayedSystem: mKRb (Mycobacterium ulcerans, UniProt Q6MZ72)
Construct: excised B1-type ketoreductase domain of module 7 of MLSB; recombinant, purified
procedureText: isothermal titration calorimetry
pKd: −log10 of the molar value.
assayEndpoint: pKd

>>> print(df.to_string())
                                   compound  assayendpoint  valuerelationsign  assayvalue
0             NCCS [compound 5, Cysteamine]            pKd                  <        3.00
1  CC(C)(CO)[C@@H](O)C(=O)NCCC(=O)NCCS [compound 2, R-Pantetheine]            pKd                  =        5.92
2  CC(C)(CO)[C@@H](O)C(=O)O [compound 4, Pantoate]            pKd                  =        6.22
3  CC(=O)NCCS [compound 7, N-Acetyl cysteamine]            pKd                  =        5.85
4  CC(C)(CO)[C@@H](O)C(=O)NCCC(=O)O [compound 3, Pantothenate]            pKd                  =        6.15
5         NCCC(=O)O [compound 6, β-Alanine]            pKd                  =        6.30

* * *

assayedSystem: mKRa (Mycobacterium ulcerans, UniProt Q6MZA4)
Construct: excised A1-type ketoreductase domain of module 5 of MLSA1; recombinant, purified
procedureText: isothermal titration calorimetry
assayEndpoint: Kd (µM)

In [3]: df
Out[3]:
                                   compound                             assayedsystem  valuerelationsign  assayvalue
0  CC(C)(CO)[C@@H](O)C(=O)NCCC(=O)O [compound 3, Pantothenate]  mKRa (Mycobacterium ulcerans, UniProt Q6MZA4)                  =         0.7
1       CC(C)(CO)[C@@H](O)C(=O)NCCC(=O)NCCS  mKRa (Mycobacterium ulcerans, UniProt Q6MZA4)                  =         1.1
2                                CC(=O)NCCS  mKRa (Mycobacterium ulcerans, UniProt Q6MZA4)                  =        1.03
3                                      NCCS  mKRa (Mycobacterium ulcerans, UniProt Q6MZA4)                  >        1000
4                                 NCCC(=O)O  mKRa (Mycobacterium ulcerans, UniProt Q6MZA4)                  =        0.97
5  CC(C)(CO)[C@@H](O)C(=O)O [compound 4, Pantoate]  mKRa (Mycobacterium ulcerans, UniProt Q6MZA4)                  >        1000

The measurements presented in this section are drawn from paper PMC6038798.
